B1: CHCHD3 (parent)
chain: YSGAYGASVSDEELKRRVAEELAL

# Variants of: B1
# assay-details: protein stability index of a GFP-peptide fusion (GPS, HEK-293T) (PSI 1-6); higher = more stable;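 further: lentivirally expressed fusions sorted by FACS into six bins by GFP to DsRed ratio, PSI derived from sequencing read proportions per bin multiplied by bin number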
# condition-label: c terminus: a fixed tail appended
readout: protein stability index
Reply: number alone, nothing else.

Consider the worked cases shown below.
{"columns": ["mutation-label", "readout", "recorded-result"],
 "data": [
  ["E12P", "protein stability index", 3.73],
  ["G6P", "protein stability index", 2.48],
  ["A23W", "protein stability index", 2.87]
]}

Sure, the documented protein stability index for `L14R` is 2.25

Sure, the documented protein stability index for `V9I` is 2.95

Sure, the documented protein stability index for `K15Y` is 2.72

Sure, the documented protein stability index for `A7D` is 4.27

Sure, the documented protein stability index for `L14T` is 3.12

Sure, the documented protein stability index for `L24R` is 2.52

Sure, the documented protein stability index for `L22V` is 3.58

Sure, the documented protein stability index for `R17T` is 2.53

Sure, the documented protein stability index for `S10E` is 3.58
